Listing of pKi toward Inosine-5'-monophosphate dehydrogenase 2 (Homo sapiens), each taken from a published source.
pKi: −log10 of the molar value.
Property Measured: pKi

These solved cases illustrate the format of a correct answer.
>>> recorded_measurement("COc1cc(NC(=O)Nc2cccc(/C=C/C(=O)NO)c2)ccc1C#N")
5.92
>>> recorded_measurement("COc1c(C)c2c(c(O)c1CCOP(=O)(O)CP(=O)(O)OC[C@H]1O[C@@H](n3cnc4c(N)nc(-c5ccco5)nc43)[C@H](O)[C@@H]1O)C(=O)OC2")
7.43
>>> recorded_measurement("COc1c(C)c2c(c(O)c1C/C=C(\\C)CCC(=O)Nc1ccc(C(F)(F)F)cc1)C(=O)OC2")
6.40
>>> recorded_measurement("COc1c(C)c2c(c(O)c1C/C=C(\\C)CCC(=O)Nc1ccc(Cl)cc1)C(=O)OC2")
6.89

[I] COc1c(C)c2c(c(O)c1C/C=C(\C)CCCC(=O)NO)C(=O)OC2
[II] COC(=O)[C@H](CO)NC(=O)CC/C(C)=C/Cc1c(O)c2c(c(C)c1OC)COC2=O
[III] COc1c(C)c2c(c(O)c1C/C=C(\C)CCC(=O)N[C@@H](Cc1c[nH]c3ccccc13)C(=O)O)C(=O)OC2
[IV] COC(=O)[C@H](Cc1ccccc1)NC(=O)CC/C(C)=C/Cc1c(O)c2c(c(C)c1OC)COC2=O
IN: Arrange these 4 compounds in increasing order of pKi. List each label, following the requested order.
OUT: I, IV, III, II

----------
Listing of Ki toward UniProt P12268, each taken from a published source.
Property Measured: Ki (nM)

These solved cases illustrate the format of a correct answer.
>>> recorded_measurement("COC(=O)[C@H](Cc1ccc(O)cc1)NC(=O)CC/C(C)=C/Cc1c(O)c2c(c(C)c1OC)COC2=O")
364
>>> recorded_measurement("COc1c(C)c2c(c(O)c1C/C=C(\\C)CCC(=O)NC[C@H]1O[C@@H](n3cnc4c(N)ncnc43)[C@H](O)[C@@H]1O)C(=O)OC2")
84
>>> recorded_measurement("COc1cc(NC(=O)C(=O)Nc2ccc(/C=C/C(=O)NO)cc2)ccc1-c1cnco1")
1800
>>> recorded_measurement("COc1cc(NC(=O)NCc2ccc(/C=C/C(=O)NO)cc2)ccc1C#N")
11000
>>> recorded_measurement("COC(=O)CNC(=O)CC/C(C)=C/Cc1c(O)c2c(c(C)c1OC)COC2=O")
487
>>> recorded_measurement("COc1c(C)c2c(c(O)c1C/C=C(\\C)CCC(=O)Nc1ccc(Cl)c(C(F)(F)F)c1)C(=O)OC2")
230

[a] COc1cc(NC(=O)Nc2ccc(/C=C/C(=O)NO)cc2)ccc1-c1cnco1
[b] COC(=O)[C@@H](Cc1ccccc1)NC(=O)CC/C(C)=C/Cc1c(O)c2c(c(C)c1OC)COC2=O
IN: // compare: a vs b , metric Ki, want the smaller When you have decided, please share the label of that item.
OUT: a
(a: 250 nM, b: 2400 nM)

----------
Listing of Ki toward Inosine-5'-monophosphate dehydrogenase 2 (Homo sapiens, UniProt P12268), each taken from a published source.
Property Measured: Ki (nM)

[I] COc1cc(NC(=O)NCc2cccc(/C=C/C(=O)NO)c2)ccc1-c1cnco1
[II] COc1c(C)c2c(c(O)c1C/C=C(\C)CCC(=O)N[C@@H](Cc1c[nH]c3ccccc13)C(=O)NC[C@H]1O[C@@H](n3cnc4c(N)ncnc43)[C@H](O)[C@@H]1O)C(=O)OC2
IN: Thinking about recorded Ki values, which is higher, I or II ? When you have decided, please share the label of that item.
OUT: I
(I: 340 nM, II: 188 nM)

[1] COc1cc(NC(=O)CC/C(C)=C/Cc2c(O)c3c(c(C)c2OC)COC3=O)ccc1Cl
[2] COc1c(C)c2c(c(O)c1C/C=C(\C)CCC(=O)N1CCC[C@H]1C(=O)O)C(=O)OC2
IN: Thinking about recorded Ki values, which is higher, 1 or 2 ? When you have decided, please share the label of that item.
OUT: 2
(2: 524 nM, 1: 350 nM)
